# METHOD: Cytotoxicity against african green monkey BSC40 cells assessed as cell viability at 50 uM for 24 hrs by neutral red assay
# Format: cell-based, BSC-40
# RUN_PARAMETERS: chlorocebus aethiops, read-out: Activity
ATTRIBUTE_MEASURED: viability at 24 h, 50 µM (%)
# value in %; strip the unit string

Answer with reported viability at 24 h, 50 µM of CCOC(=O)c1nnn(Nc2cc(Cl)ccc2Cl)c1C
60
